# target-of-assay: T1, Full length Mouse TfR on CHO cells (mouse, UniProt Q62351 1-763)
# T1 construct: also called CHO + muTfR
# T1 sequence (Q62351 whole entry): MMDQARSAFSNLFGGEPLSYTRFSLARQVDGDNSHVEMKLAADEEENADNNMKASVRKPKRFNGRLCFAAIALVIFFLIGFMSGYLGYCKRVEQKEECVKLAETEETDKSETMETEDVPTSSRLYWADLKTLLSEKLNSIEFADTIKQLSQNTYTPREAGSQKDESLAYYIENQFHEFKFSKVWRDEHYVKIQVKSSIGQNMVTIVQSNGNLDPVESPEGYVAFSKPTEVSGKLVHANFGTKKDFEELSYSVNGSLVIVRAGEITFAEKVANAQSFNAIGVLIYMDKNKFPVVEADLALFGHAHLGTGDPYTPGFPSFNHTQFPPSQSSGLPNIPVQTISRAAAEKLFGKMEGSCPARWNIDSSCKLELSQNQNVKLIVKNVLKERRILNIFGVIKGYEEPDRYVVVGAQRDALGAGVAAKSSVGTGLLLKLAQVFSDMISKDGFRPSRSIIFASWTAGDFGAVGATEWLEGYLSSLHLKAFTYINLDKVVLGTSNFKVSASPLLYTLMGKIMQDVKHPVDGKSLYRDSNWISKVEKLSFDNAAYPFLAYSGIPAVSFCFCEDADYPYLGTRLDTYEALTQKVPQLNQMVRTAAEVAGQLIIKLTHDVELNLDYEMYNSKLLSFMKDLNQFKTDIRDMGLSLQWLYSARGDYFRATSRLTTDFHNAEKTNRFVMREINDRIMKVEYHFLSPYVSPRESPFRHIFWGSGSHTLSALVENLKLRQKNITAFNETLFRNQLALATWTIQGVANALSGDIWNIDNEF
# method-summary: FACS, CHO+muTfR
quantity-measured: binding result

TfR2 (mouse hybridoma antibody) (antibody, V domains shown, mouse IgG in hybridoma supernatant) VH: EVQLQQSGPELVKPGASVKISCKASGYTFTDYNMHWVKQSHGKSLEWIGYIYPYNGGTGYNQKFKSKATLTVDNSSSTAYMELRSLTSEDSAVYYCATLYDGYYFDYWGQGTTLTVSS VL: DILLTQSPAILSVSPGERVSFSCRASQSIGTSIHWYQQRTNGSPRLLIKYASESISGIPSRFSGSGSGTDFTLSINNVESEDIADYYCQQSNSWPFTFGSGTKLEIK = no binding
TfR16 (mouse hybridoma antibody) (antibody, V domains shown, mouse IgG in hybridoma supernatant) VH: EVQLQQSGTVLARPGASVKMSCKTSGYSFSSYWMHWVKQRPGQGLEWIGTIYPGNSDTIYNQNFKGKAKLTAVTSASTAYMELSSLTNEDSAVYYCSTIYYFSNWGQGTTLTVSS VL: DIKMTQSPSPMFASLGERVTITCKASQDINSYLSWFQQKPGKSPKTLIYRANRLLDGVPSRFSGSGSGQDYSLTISSLDYEDVGIYYCLQYDVFPYTFGGGTKLEIK = no binding
TfR4 (mouse hybridoma antibody) (antibody, V domains shown, mouse IgG in hybridoma supernatant) VH: QVQLQQSGAELVRPGTSVKVSCKASGYAFTNYLIEWVKQRPGQGLEWIGVINPGSGGTTYNEKFKGKATLTADKSSSTAYMQLSGLTSDDSAVYFCARRSPYFDYWGQGTTLTVSS VL: SIVMTQTPKFLLVSAGDRVTITCKASQSVSNDVAWYQQKPGQSPKLLIYYASNRYTGVPDRFTGSGYGTDFTFTISTVQAEDLAVYFCHQDYISPTFGGGTKLEIK = no binding
